# TEST SETTINGS: 303.15 K; 101.33 kPa; Liquid; Vibrating tube method
Measured mass density accompanies every entry in the list below.

COMPOUND	mass density, kg/m3
CCCCCCCCn1cc[n+](C)c1.O=S(=O)([O-])C(F)(F)F [1-octyl-3-methylimidazolium trifluoromethanesulfonate]	1189.64
CCCC[n+]1ccccc1.O=S(=O)([N-]S(=O)(=O)C(F)(F)F)C(F)(F)F [1-butylpyridinium bis[(trifluoromethyl)sulfonyl]imide]	1443.6
CCCC(=O)[O-].C[NH2+]CCO [N-methyl-2-hydroxyethylammonium butanoate]	1031.04

---

Measured mass density accompanies every entry in the list below.
# TEST SETTINGS: 298.15 K; 101.33 kPa; Liquid; Vibrating tube method

COMPOUND	mass density (kg/m3)
CCCCCCCCn1cc[n+](C)c1.O=S(=O)([O-])C(F)(F)F [1-octyl-3-methylimidazolium trifluoromethanesulfonate]	1193.39
CCCC[n+]1ccccc1.O=S(=O)([N-]S(=O)(=O)C(F)(F)F)C(F)(F)F [1-butylpyridinium bis[(trifluoromethyl)sulfonyl]imide]	1448.23
CCCCCCCCCCCCn1cc[n+](C)c1.O=S(=O)([N-]S(=O)(=O)C(F)(F)F)C(F)(F)F	1230.2
CCCCCCCCn1cc[n+](C)c1.O=S(=O)([N-]S(=O)(=O)C(F)(F)F)C(F)(F)F	1320.54
CCCC[n+]1ccn(C)c1.O=S(=O)([N-]S(=O)(=O)C(F)(F)F)C(F)(F)F	1434.32

---

# TEST SETTINGS: 293.15 K; 101.33 kPa; Liquid; Vibrating tube method
Measured mass density accompanies every entry in the list below.
TEST READOUT: mass density (kg/m3)

COMPOUND	UNIT OF MEASUREMENT	VALUE OBSERVED
CCCCCCCCn1cc[n+](C)c1.O=S(=O)([O-])C(F)(F)F [1-octyl-3-methylimidazolium trifluoromethanesulfonate]	kg/m3	1197.12
CCC(=O)[O-].C[NH2+]CCO [2-hydroxy-N-methylethanaminium propionate]	kg/m3	1068.13
CC(=O)[O-].C[NH2+]CCO [N-methyl-2-hydroxyethylammonium acetate]	kg/m3	1099.6
CCCC(=O)[O-].C[NH2+]CCO [N-methyl-2-hydroxyethylammonium butanoate]	kg/m3	1038.03
CCCC[n+]1ccccc1.O=S(=O)([N-]S(=O)(=O)C(F)(F)F)C(F)(F)F [1-butylpyridinium bis[(trifluoromethyl)sulfonyl]imide]	kg/m3	1452.97
CCCCCCCCCCCCn1cc[n+](C)c1.O=S(=O)([N-]S(=O)(=O)C(F)(F)F)C(F)(F)F	kg/m3	1234.45
CCCC[n+]1ccn(C)c1.O=S(=O)([N-]S(=O)(=O)C(F)(F)F)C(F)(F)F	kg/m3	1439.13
CCCCCCCCn1cc[n+](C)c1.O=S(=O)([N-]S(=O)(=O)C(F)(F)F)C(F)(F)F	kg/m3	1324.99

---

# TEST SETTINGS: 328.15 K; 101.33 kPa; Liquid; Vibrating tube method

COMPOUND	mass density (kg/m3)
CCCC[n+]1ccn(C)c1.O=S(=O)([N-]S(=O)(=O)C(F)(F)F)C(F)(F)F	1405.78
CCCC[n+]1ccccc1.O=S(=O)([N-]S(=O)(=O)C(F)(F)F)C(F)(F)F [1-butylpyridinium bis[(trifluoromethyl)sulfonyl]imide]	1420.41
CCCCCCCCn1cc[n+](C)c1.O=S(=O)([O-])C(F)(F)F [1-octyl-3-methylimidazolium trifluoromethanesulfonate]	1171.02
CCCCCCCCn1cc[n+](C)c1.O=S(=O)([N-]S(=O)(=O)C(F)(F)F)C(F)(F)F	1294.08
CCCCCCCCCCCCn1cc[n+](C)c1.O=S(=O)([N-]S(=O)(=O)C(F)(F)F)C(F)(F)F	1204.95

---

Measured mass density accompanies every entry in the list below.
# TEST SETTINGS: 333.15 K; 101.33 kPa; Liquid; Vibrating tube method
Numbers after ± are expanded uncertainties.

COMPOUND	mass density
CCCC[n+]1ccccc1.O=S(=O)([N-]S(=O)(=O)C(F)(F)F)C(F)(F)F [1-butylpyridinium bis[(trifluoromethyl)sulfonyl]imide]	1415.82 ± 1.8 kg/m3
CCC(=O)[O-].C[NH2+]CCO [2-hydroxy-N-methylethanaminium propionate]	1039.96 ± 0.93 kg/m3
CCCCCCCCn1cc[n+](C)c1.O=S(=O)([O-])C(F)(F)F [1-octyl-3-methylimidazolium trifluoromethanesulfonate]	1167.34 ± 0.42 kg/m3
CCCCCCCCCCCCn1cc[n+](C)c1.O=S(=O)([N-]S(=O)(=O)C(F)(F)F)C(F)(F)F	1200.8 ± 1.3 kg/m3
CCCC[n+]1ccn(C)c1.O=S(=O)([N-]S(=O)(=O)C(F)(F)F)C(F)(F)F	1401.09 ± 4 kg/m3
CC(=O)[O-].C[NH2+]CCO [N-methyl-2-hydroxyethylammonium acetate]	1072.9 ± 1 kg/m3
CCCCCCCCn1cc[n+](C)c1.O=S(=O)([N-]S(=O)(=O)C(F)(F)F)C(F)(F)F	1289.73 ± 0.51 kg/m3
CCCC(=O)[O-].C[NH2+]CCO [N-methyl-2-hydroxyethylammonium butanoate]	1009.68 ± 0.87 kg/m3

---

# TEST SETTINGS: 353.15 K; 101.33 kPa; Liquid; Vibrating tube method

MOLECULE	UNIT OF MEASUREMENT	mass density
CCCCCCCCCCCCn1cc[n+](C)c1.O=S(=O)([N-]S(=O)(=O)C(F)(F)F)C(F)(F)F	kg/m3	1184.33
CCCCCCCCn1cc[n+](C)c1.O=S(=O)([O-])C(F)(F)F [1-octyl-3-methylimidazolium trifluoromethanesulfonate]	kg/m3	1152.68
CCCC(=O)[O-].C[NH2+]CCO [N-methyl-2-hydroxyethylammonium butanoate]	kg/m3	994.97
CCCC[n+]1ccn(C)c1.O=S(=O)([N-]S(=O)(=O)C(F)(F)F)C(F)(F)F	kg/m3	1382.43
CCCC[n+]1ccccc1.O=S(=O)([N-]S(=O)(=O)C(F)(F)F)C(F)(F)F [1-butylpyridinium bis[(trifluoromethyl)sulfonyl]imide]	kg/m3	1397.61
CCC(=O)[O-].C[NH2+]CCO [2-hydroxy-N-methylethanaminium propionate]	kg/m3	1025.34
CCCCCCCCn1cc[n+](C)c1.O=S(=O)([N-]S(=O)(=O)C(F)(F)F)C(F)(F)F	kg/m3	1272.41
CC(=O)[O-].C[NH2+]CCO [N-methyl-2-hydroxyethylammonium acetate]	kg/m3	1059.1

---

# TEST SETTINGS: 318.15 K; 101.33 kPa; Liquid; Vibrating tube method
Measured mass density accompanies every entry in the list below.
TEST READOUT: mass density (kg/m3)

COMPOUND	TEST READOUT	UNIT OF MEASUREMENT	VALUE OBSERVED
CCCCCCCCn1cc[n+](C)c1.O=S(=O)([N-]S(=O)(=O)C(F)(F)F)C(F)(F)F	mass density	kg/m3	1302.82
CCCC[n+]1ccccc1.O=S(=O)([N-]S(=O)(=O)C(F)(F)F)C(F)(F)F [1-butylpyridinium bis[(trifluoromethyl)sulfonyl]imide]	mass density	kg/m3	1429.62
CCCCCCCCCCCCn1cc[n+](C)c1.O=S(=O)([N-]S(=O)(=O)C(F)(F)F)C(F)(F)F	mass density	kg/m3	1213.28
CCCC[n+]1ccn(C)c1.O=S(=O)([N-]S(=O)(=O)C(F)(F)F)C(F)(F)F	mass density	kg/m3	1415.23
CCCCCCCCn1cc[n+](C)c1.O=S(=O)([O-])C(F)(F)F [1-octyl-3-methylimidazolium trifluoromethanesulfonate]	mass density	kg/m3	1178.44

Values were extracted from the NIST ThermoML archive (doi:10.1021/acs.jced.5b00592).
